Published IC50 for Lysine-specific demethylase 5A (Homo sapiens, UniProt P29375), assembled from different documents, is shown next.

// solved cases for IC50 follow
1) CC(C)c1cc(C(=O)N2CCC(NC(=O)c3cnccn3)C2)n[nH]1 (stereo not drawn): 0.0011 µM
2) CC(C)c1cc(C(=O)N2CCC(NC(=O)c3cccc(Cl)c3)C2)[nH]n1 (stereo not drawn): 0.00025 µM
3) CC(C)c1cc(C(=O)N2CC[C@@H](NC(=O)[C@@H]3C[C@H]3F)C2)[nH]n1: 0.00014 µM
4) COCc1cc(O)n(-c2cc(C(=O)O)ccn2)n1: 0.1 to 1 µM
5) O=C(O)c1ccnc2cc(Cc3ccc(Cl)c(OCC4CC4)c3)[nH]c12: 0.1 to 1 µM
6) COCCn1cnc(-c2cc(C(=O)O)ccn2)c1-c1ccc(Cl)c(F)c1: ≤ 0.1 µM
7) O=C(O)c1ccnc(-n2ccc(Cc3ccccc3)n2)c1: 1 to 10 µM
8) N#Cc1cccc(COc2nc(O)c3ccncc3n2)c1: 0.1 to 1 µM

Here's the next entry for you.
Provide IC50 value for the following compound: `Oc1nc(OCC(F)(F)F)nc2cnccc12`
≤ 0.1 µM

###

pIC50: −log10 of the molar value.
Published pIC50 for Lysine-specific demethylase 5A (Homo sapiens), assembled from different documents, is shown next.

// solved cases for pIC50 follow
1) O=C(O)c1ccnc2cc(C3CC3)[nH]c12: 5.00 to 6.00
2) O=C(O)c1ccncc1Nc1nn(CCC2CC2)c2ccc(F)cc12: > 7.00
3) Oc1nc(Oc2cnn([C@H]3CCN(c4ccc(F)cc4)C3)c2)nc2cnccc12: ≥ 7.00
4) Cn1cnc(-c2nccc3c(O)nc(OCc4cccc(Cl)c4Cl)nc23)c1: 5.00 to 6.00

Provide pIC50 value for the following compound: `O=C(O)c1ccnc(-n2nccc2OCc2ccccc2)c1`
> 7.00

Provide pIC50 value for the following compound: `CC1(C)Cc2cccc(COc3ccnn3-c3cc(C(=O)O)ccn3)c2O1`
6.00 to 7.00

Provide pIC50 value for the following compound: `O=C(C1CC1)N1CCC(n2cc(Oc3nc(O)c4ccncc4n3)cn2)CC1`
≥ 7.00

Provide pIC50 value for the following compound: `O=C(O)c1ccnc(-c2cn(Cc3ccccc3)cn2)c1`
≥ 7.00

Provide pIC50 value for the following compound: CCn1cc(-c2cc(C)nc(C3CCN(C(=O)c4cc(C(C)C)n[nH]4)C3)c2)cn1 (stereo not drawn)
9.17

###

Published pIC50 for Lysine-specific demethylase 5A (Homo sapiens, UniProt P29375), assembled from different documents, is shown next.
pIC50: −log10 of the molar value.

// solved cases for pIC50 follow
1) N#CNC(=O)c1ccncc1Nc1nn(CCN2CCC(F)(F)C2)c2ccc(F)cc12: > 7.00
2) Oc1nc(OCc2cc(F)ccc2F)nc2cnccc12: 5.00 to 6.00
3) CC(C)CC(=O)NC1CCN(C(=O)c2cc(C(C)C)n[nH]2)C1 (centres unmarked): 9.49

Provide pIC50 value for the following compound: CC(COc1nc(O)c2ccncc2n1)c1ccccc1 (centres unmarked)
6.00 to 7.00

Provide pIC50 value for the following compound: `COCCCn1nc(Nc2cnccc2C(=O)O)c2cc(F)ccc21`
> 7.00

###

Published IC50 for UniProt P29375, assembled from different documents, is shown next.

// solved cases for IC50 follow
1. Oc1nc(Oc2cnn([C@@H]3CCNC3)c2)nc2cnccc12: ≤ 100 nM
2. CCOc1cc(Cl)ccc1-c1c(-c2cc(C(=O)O)ccn2)ncn1C: ≤ 100 nM
3. Cn1cnc(-c2cc(C(=O)O)ccn2)c1-c1ccc(Cl)c(F)c1: ≤ 100 nM
4. COc1ccccc1C(=O)NC1CCN(C(=O)c2cc(C(C)C)n[nH]2)C1 (stereo not shown): 0.073 nM
5. O=C(O)c1ccnc(-c2cn(C3CCc4c(F)cccc43)cn2)c1 (stereo not shown): ≤ 100 nM
6. COc1cccc(C(O)c2cc3nccc(C(=O)O)c3[nH]2)c1 (racemic): < 100 nM

Give measured IC50 for CCC(Oc1nc(O)c2ccnc(-c3cn(C)cn3)c2n1)C(F)(F)F (stereo not shown) (UniProt P29375).
100 to 1000 nM

Give measured IC50 for `Cn1cnc(-c2cc(C(=O)O)ccn2)c1-c1ccc(C2(C(F)(F)F)CC2)cc1` (UniProt P29375).
≤ 100 nM

###

Published IC50 for Lysine-specific demethylase 5A (Homo sapiens), assembled from different documents, is shown next.

// solved cases for IC50 follow
1. Cn1cnc(-c2cc(C(=O)O)ccn2)c1-c1ccc(Cl)cc1Cl: ≤ 100 nM
2. COc1ccccc1CNCCn1cnc(-c2cc(C(=O)O)ccn2)c1: ≤ 100 nM
3. O=C(O)c1ccncc1Nc1nn(CCN2CCC(F)(F)CC2)c2ccc(F)cc12: < 100 nM
4. Cc1cc(F)ccc1COc1ccnn1-c1cc(C(=O)O)ccn1: < 100 nM
5. CCCn1nc(Nc2cnccc2C(=O)O)c2cc(Cl)ccc21: < 100 nM

Provide IC50 value for the following compound: `O=C(O)c1ccnc(-n2nccc2OCc2ccc(C3CC3)cc2)c1`
< 100 nM

Provide IC50 value for the following compound: Cc1cc(-c2cnn(-c3ccccc3)c2)cc(C2CCN(C(=O)c3cc(C(C)C)n[nH]3)C2)n1 (stereo not shown)
0.3 nM

Provide IC50 value for the following compound: Cc1cc(-c2cccc(C#N)c2)cc(C2CCN(C(=O)c3cc(C(C)C)n[nH]3)C2)n1 (stereo not shown)
0.35 nM

Provide IC50 value for the following compound: `Oc1nc(Oc2cccc(F)c2F)nc2cnccc12`
≤ 100 nM

Provide IC50 value for the following compound: `CC(C)CCn1cc(Oc2nc(O)c3ccncc3n2)cn1`
≤ 100 nM

Provide IC50 value for the following compound: `Cn1cnc(-c2cc(C(=O)O)ccn2)c1-c1ccc(Cl)c(C(F)(F)F)c1`
≤ 100 nM

Provide IC50 value for the following compound: CC(C)c1cc(C(=O)N2CCC(NC(=O)c3cccc(F)c3)C2)[nH]n1 (stereo not shown)
0.074 nM

Provide IC50 value for the following compound: `COc1cc(Br)ccc1COc1ccnn1-c1cc(C(=O)O)ccn1`
< 100 nM

Provide IC50 value for the following compound: `COc1cc(-c2c(-c3cc(C(=O)O)ccn3)ncn2C)ccc1Cl`
≤ 100 nM

Provide IC50 value for the following compound: `O=C(O)c1ccnc(-n2nccc2OCc2cccc(F)c2)c1`
< 100 nM

Provide IC50 value for the following compound: `Oc1nc(OCc2ccc(F)cc2)nc2cnccc12`
1000 to 10000 nM

###

Published IC50 for Lysine-specific demethylase 5A (Homo sapiens, UniProt P29375), assembled from different documents, is shown next.

// solved cases for IC50 follow
1. CCc1cnn(-c2cc(C(=O)O)ccn2)c1OCc1ccc(F)cc1: < 100 nM
2. O=C(C1CC1)N1CCC[C@@H](n2cc(Oc3nc(O)c4ccncc4n3)cn2)C1: ≤ 100 nM
3. COc1ccc(COc2ccnn2-c2cc(C(=O)O)ccn2)cc1: < 100 nM
4. CNC(=O)NC1CCN(C(=O)c2cc(C(C)C)n[nH]2)C1 (stereo not shown): 0.058 nM
5. CC(C)c1cccc(Oc2nc(O)c3ccncc3n2)c1: ≤ 100 nM
6. CC(C)c1cc(C(=O)N2CCC(NC(=O)c3ccncc3)C2)[nH]n1 (stereo not shown): 2.5 nM
7. CC(C)c1cc(C(=O)N2CCC(NC(=O)c3cc4ccccc4[nH]3)C2)[nH]n1 (stereo not shown): 0.49 nM
8. O=C(C1CC1)N1CCC[C@H](n2cc(Oc3nc(O)c4ccncc4n3)cn2)C1: ≤ 100 nM
9. Cc1cc(-c2ccoc2)cc(C2CCN(C(=O)c3cc(C(C)C)n[nH]3)C2)n1 (stereo not shown): 0.27 nM
10. O=C(O)c1ccnc2cc(C(=O)N3CCCc4ccccc43)[nH]c12: 100 to 1000 nM

Give measured IC50 for Cc1cc(-c2c[nH]nc2C)cc(C2CCN(C(=O)c3cc(C(C)C)n[nH]3)C2)n1 (stereo not shown) (Lysine-specific demethylase 5A (Homo sapiens, UniProt P29375)).
0.13 nM

Give measured IC50 for `O=C(O)c1ccnc2cc(COc3ccc4c(c3)CCO4)[nH]c12` (Lysine-specific demethylase 5A (Homo sapiens, UniProt P29375)).
< 100 nM

Give measured IC50 for CCC(O)c1cc2nccc(C(=O)O)c2[nH]1 (racemic) (Lysine-specific demethylase 5A (Homo sapiens, UniProt P29375)).
< 100 nM

Give measured IC50 for Cc1cc(-c2cnn(C)c2C)cc(C2CCN(C(=O)c3cc(C(C)C)n[nH]3)C2)n1 (stereo not shown) (Lysine-specific demethylase 5A (Homo sapiens, UniProt P29375)).
0.37 nM

Give measured IC50 for `N#Cc1ccc(OCc2cc3nccc(C(=O)O)c3[nH]2)cc1` (Lysine-specific demethylase 5A (Homo sapiens, UniProt P29375)).
< 100 nM

Give measured IC50 for `CCCc1cc(O)n(-c2cc(C(=O)O)ccn2)n1` (Lysine-specific demethylase 5A (Homo sapiens, UniProt P29375)).
100 to 1000 nM

Give measured IC50 for `Oc1nc(Oc2cnn([C@@H]3CCN(c4ccc(F)cc4)C3)c2)nc2cnccc12` (Lysine-specific demethylase 5A (Homo sapiens, UniProt P29375)).
≤ 100 nM
